- EXPERIMENTAL_SYSTEM: human gpr-54 receptor (human, UniProt Q969F8 1-398)
- Sequence (Q969F8 whole entry): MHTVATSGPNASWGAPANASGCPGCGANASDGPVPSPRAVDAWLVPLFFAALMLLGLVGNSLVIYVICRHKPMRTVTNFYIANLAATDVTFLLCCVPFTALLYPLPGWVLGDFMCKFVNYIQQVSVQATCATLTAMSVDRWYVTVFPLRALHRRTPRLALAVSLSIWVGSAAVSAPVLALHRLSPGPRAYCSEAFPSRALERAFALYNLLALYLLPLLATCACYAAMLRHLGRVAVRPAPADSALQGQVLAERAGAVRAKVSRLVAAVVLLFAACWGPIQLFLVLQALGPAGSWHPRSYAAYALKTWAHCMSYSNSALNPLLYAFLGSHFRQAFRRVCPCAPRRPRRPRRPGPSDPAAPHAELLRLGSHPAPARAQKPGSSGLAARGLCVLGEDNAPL
- PROCEDURE_DETAILS: cell-based or functional assay
Non-standard residues stand in square brackets, D forms with d. No end group written: not given here.
Classify: YES when IP stimulation (IC50), peptide alone is strictly less than 100 nM; NO when IP stimulation (IC50), peptide alone is not.

Solved cases below.
# BINDER, CATEGORY
measured = [
    ("YNWNG[dW]GLRF-NH2 (N-terminus assumed; SMILES CC(C)C[C@H](NC(=O)CNC(=O)[C@@H](Cc1c[nH]c2ccccc12)NC(=O)CNC(=O)[C@H](CC(N)=O)NC(=O)[C@H](Cc1c[nH]c2ccccc12)NC(=O)[C@H](CC(N)=O)NC(=O)[C@@H](N)Cc1ccc(O)cc1)C(=O)N[C@@H](CCCNC(=N)N)C(=O)N[C@@H](Cc1ccccc1)C(N)=O, kisspeptin-10 analogue; also called YNWNG[(D)-W]GLRF) [212]", "NO"),
    ("Ac-[dY]NWNGFGWRF-NH2 (SMILES CC(=O)N[C@H](Cc1ccc(O)cc1)C(=O)N[C@@H](CC(N)=O)C(=O)N[C@@H](Cc1c[nH]c2ccccc12)C(=O)N[C@@H](CC(N)=O)C(=O)NCC(=O)N[C@@H](Cc1ccccc1)C(=O)NCC(=O)N[C@@H](Cc1c[nH]c2ccccc12)C(=O)N[C@@H](CCCNC(=N)N)C(=O)N[C@@H](Cc1ccccc1)C(N)=O) [237]", "NO"),
    ("Ac-AGLRW-NH2 (kisspeptin-10 analogue; also called acAGLRW) [202]", "NO"),
    ("YNWNSFGLRW-NH2 (kisspeptin-10 analogue) [187]", "YES"),
    ("Ac-FGLRF-NH2 (kisspeptin-10 analogue; also called Peptide 188; acFGLRF) [188]", "NO"),
]

Okay, now this binder:
Strictly below 100 nM: is that where IP stimulation (IC50), peptide alone of YNWNGFGLRF-NH2 (kisspeptin-10 analogue) [208] sits? YES
